Tested on: A549
Assay: Cytotoxicity in human A549 cells assessed as reduction in cell viability incubated for 3 days by MTT assay
Assay type: functional, cell-based
Settings: a549
readout kind: IC50

compound: C=CC(C)(C)[C@@]12Nc3cc4c(cc3[C@]1(O)C[C@]1(O)C(=O)N3CCC[C@H]3C(=O)N21)C=CC(C)(C)O4
readout kind: IC50
measured value: Not Active
--
compound: C=CC(C)(C)[C@@]12Nc3cc4c(cc3[C@]1(O)C[C@]1(NC(=O)[C@H]3CCCN3C1=O)O2)C=CC(C)(C)O4
readout kind: IC50
measured value: Not Active
--
compound: C=CC(C)(C)[C@]1(CC2NC(=O)C3(O)CCCN3C2=O)C(=O)Nc2cc3c(cc21)C=CC(C)(C)O3 (some centres undefined)
readout kind: IC50
measured value: Not Active
--
compound: C=CC(C)(C)[C@@]12Nc3cc4c(cc3[C@]1(O)C[C@H]1C(=O)N3CCC[C@H]3C(=O)N12)C=CC(C)(C)O4
readout kind: IC50
measured value: Not Active

====

Tested on: MCF7
Experiment: Cytotoxicity in human MCF7 cells assessed as reduction in cell viability incubated for 3 days by MTT assay
Type: functional, cell-based
Conditions: mcf7
readout kind: IC50

compound: C=CC(C)(C)[C@]1(CC2NC(=O)C3(O)CCCN3C2=O)C(=O)Nc2cc3c(cc21)C=CC(C)(C)O3 (some centres undefined)
measured value: Not Active
--
compound: C=CC(C)(C)[C@]1(CC2(O)NC(=O)C3CCCN3C2=O)C(=O)Nc2cc3c(cc21)C=CC(C)(C)O3 (some centres undefined)
measured value: Not Active
--
compound: C=CC(C)(C)[C@@]1(C[C@@H]2NC(=O)[C@@H]3CCCN3C2=O)C(=O)Nc2cc3c(cc21)C=CC(C)(C)O3
measured value: Not Active
--
compound: C=CC(C)(C)[C@@]12Nc3cc4c(cc3[C@]1(O)C[C@]1(NC(=O)[C@H]3CCCN3C1=O)O2)C=CC(C)(C)O4
measured value: Not Active
